Test system: K4 kissing-loop RNA reporter;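 note: bound reporter read as fluorescence of individual clusters on recovered sequencing chips by microscopy, with normalized cluster intensities fitted with a binding model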
test.method.notes: apparent KD of K4 kissing-loop reporter; higher = weaker reporter binding
condition.description: Eterna round: R107; input ligand: arginine 13.2 mM
observation.type: apparent KD of K4 kissing-loop reporter (nM)

input_sequence="GUUACGCAUGGAAGGAGCGCGAUUAAAUUUAGUGAGUGAUGUUCACAAAAUAAAACUAAAACGCAGGUAGGUCGCCAUGUGUAAC [Ex Arginine B K4 2]" observation_type="apparent KD of K4 kissing-loop reporter" unit_text=nM obs_value=196
input_sequence=GCCGUAGAUUGAAGGAGCGUGGAACUAUGGCUUGAACAGUGAUGUUGUUUAUCUAGGUAGCCACAGGUAGGUCGCAAUCUACGGC observation_type="apparent KD of K4 kissing-loop reporter" unit_text=nM obs_value=201
input_sequence="ACGUAGUUCUAGGAUACCAGCCAAGGUGCCAGGACAAAAGUCCUGGCAGUCAGUGAUGUUGGCCCUUGGCAGCCUAGAACUACGA [Omei KL Theo B Exc B v8]" observation_type="apparent KD of K4 kissing-loop reporter" unit_text=nM obs_value=196

###

Test system: MS2 coat protein
test.method.notes: apparent KD of MS2 coat protein; designed switch direction (-1 OFF switch, 1 ON switch): -1; higher = weaker reporter binding
condition.description: input ligand: none
The sequences listed here are annotated with their apparent KD of MS2 coat protein.
observation.type: apparent KD of MS2 coat protein (nM)

input_sequence="UUAUUAAUUAAGACUGCAAGAUCACAUGAGGAUCACCCAUGUCAGGAUAUCAGCUCGUGUAGAGCUGAGAAGGGACAAGCAGUC [ExNG3/15-A3] (Eterna round: R96, puzzle: Exclusion NG 3)" target_entity="MS2 coat protein" obs_value=123
input_sequence="CCGCUGCAAGGAUAUACUUGCGGUGGUGUUCGAGUUCUUUUACUUGAGGAUCACCCAAGUAGAAGGUGCAAAAC [jl-ex2.4.54 ViennaUCT mod] (Eterna round: R97, puzzle: Exclusion 2)" target_entity="MS2 coat protein" obs_value=16.2
input_sequence="GUCUAGAGAGGAUAUAUUUACAGUGUACGUCGGAUGAUCGCACUUGAGGAUCACCCAAGUAGAAGGCUCGAGGG [EX2 #31] (Eterna round: R97, puzzle: Exclusion 2)" target_entity="MS2 coat protein" obs_value=1850
input_sequence="UUAACGUCAGGAUAUGCUUAAUAUAUUAUAUUAUAAUAUAUACAUGAGGAUCACCCAUGUAGAAGGGACAUUAU [LRO-Excl2-02-Fireball XL5] (Eterna round: R97, puzzle: Exclusion 2)" target_entity="MS2 coat protein" obs_value=52.1

###

System: MS2 coat protein
test.method.notes: apparent KD of MS2 coat protein; designed switch direction (-1 OFF switch, 1 ON switch): 1; higher = weaker reporter binding
condition.description: input ligand: none
Assign class by apparent KD of MS2 coat protein: not lower than 100 nM means class 1; lower than 100 nM means class 0.

input_sequence="GGAGCCAAGGCAGGAUAUUCAUAUUAAUAAACAUGAGGAUCACCCAUGUAGGCCAGAAGGCCUUGGGAGAAGGGCCAUGGCUCG [Xeonanis - 13 mod5] (Eterna round: R96, puzzle: Same State NG 2)" group_label="class 1"
input_sequence="GUGGUCAGACAUGAGGAUCACCCAUGUGGAAUAAAUAAGGGAGAGGAUAUUUAAUAUAGGAUAUAAAAGAAGGCUCGGUUGGUG (Eterna round: R96, puzzle: Same State NG 3)" group_label="class 1"
input_sequence="UGGCUGGUGCUAGGAUAUGCAUGAGGCCUCCUCGUAGAAGGAGCACGACAUGAGGAUCACCCAUGUGGCCGUCCGUGGACGGCU [salish99_SSNG1_r04_014] (Eterna round: R96, puzzle: Same State NG 1)" group_label="class 0"
input_sequence="AUUUUUAAUGCAGGAUAUGAUUAACAUGAGGAUCACCCAUGUGGUGUUGUGAGUAAGGAGAGUGAUCAGAAGGGCAUUUUUUUG [JMF's solution 90] (Eterna round: R96, puzzle: Same State NG 2)" group_label="class 1"
input_sequence="AUAGUUAGCGAAGGAUAUGGGAAAGGAAGUGUACCAGAAGGUCGGCUACUGGGCUUACAUGAGGAUCACCCAUGUCCCGGUAGC [PowerStrip SSNG 1.13] (Eterna round: R96, puzzle: Same State NG 1)" group_label="class 0"
input_sequence="AACAAACAUGAGGAUCACCCAUGUACAGACCUGGACAUUGUCGAGGAUAUCAGCAAGAAAACAGCUGAGAAGGUGACGCCAGAG [Eternabot solution 6] (Eterna round: R96, puzzle: Same State NG 3)" group_label="class 0"
